Cited source: paper PMC8536012

Target: T1, Lup an 1 (Lupinus angustifolius (by the …, UniProt F5B8W3))
T1 construct: Lup an 1, lupin β-conglutin, a 7S seed storage globulin of the vicilin-like proteins; found by LC-MS/MS of the ~55 kDa band immunocaptured from crude lupine extract; UniProt F5B8W3.1; size distribution printed as 55 to 61 kDa; Never purified: it stood in a crude lupine protein extract in every experiment; Seen as a band of ~55 kDa; also called lupin β-conglutin; lupine allergen Lup an 1; source: …
T1 sequence (F5B8W3 31-637): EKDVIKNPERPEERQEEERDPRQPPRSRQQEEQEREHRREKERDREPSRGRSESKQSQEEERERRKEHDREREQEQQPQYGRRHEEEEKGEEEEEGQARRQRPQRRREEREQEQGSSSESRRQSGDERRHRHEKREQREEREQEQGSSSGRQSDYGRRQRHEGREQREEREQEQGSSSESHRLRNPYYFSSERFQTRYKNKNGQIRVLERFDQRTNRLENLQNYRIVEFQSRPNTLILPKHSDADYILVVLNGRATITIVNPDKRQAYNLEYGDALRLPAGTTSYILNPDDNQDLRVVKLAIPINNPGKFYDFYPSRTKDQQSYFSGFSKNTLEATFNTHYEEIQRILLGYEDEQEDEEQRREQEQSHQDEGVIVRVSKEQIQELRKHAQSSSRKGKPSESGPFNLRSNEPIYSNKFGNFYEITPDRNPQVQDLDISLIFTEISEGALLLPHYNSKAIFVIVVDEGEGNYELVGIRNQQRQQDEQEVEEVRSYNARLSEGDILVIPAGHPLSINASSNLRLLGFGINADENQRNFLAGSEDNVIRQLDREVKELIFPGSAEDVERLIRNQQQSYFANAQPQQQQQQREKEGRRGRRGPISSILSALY
Assay: ELISA; crude lupine extract (50 μg/mL) coated overnight at 4 °C; Nbs serially diluted in PBS, 1 h at room temperature; detected by mouse anti-His IgG and HRP goat anti-mouse IgG; apparent affinity = concentration at half of the maximum signal
Details: one partner purified
pEC50: −log10 of the molar value.
Readout Name: pEC50

| Binder | Readout Name | Result |
| --- | --- | --- |
| Nb B40 (His- and HA-tagged) (VHH, Detecting nanobody of the final sandwich ELISA; also called Nb40; B40HA; source: E. coli WK6 (pMECS), periplasmic, purified (IMAC, SEC)) VHH: QVQLQESGGGLVQAGESLRLSCATTEHANQMYAVGWFRQAPGKEREFVASINWSGTRTEHAESVKGRFTISKINPHDTVYLQMNSLKPEDTAVYACAARYYSGTYTKTDNSNDYDYWGQGTQVTVSS | pEC50 | 8.10 |
| Nb B83 (His- and HA-tagged) (VHH, also called Nb83; B83HA; source: E. coli WK6 (pMECS), periplasmic, purified (IMAC, SEC)) VHH: QVQLQESGGGLVQPGGSLRLSCAASGSIFSRNDMGWYRQAVGEARILVATITSGGVTTYADSVKGRFTISRDNAKNTVYLQMNSLKPEDTAVYYCNTLTNRRNAYWGQGTQVTVSS | pEC50 | 9.00 |
| Nb B167 (His- and HA-tagged) (VHH, also called Nb167; source: E. coli WK6 (pMECS), periplasmic, purified (IMAC, SEC)) VHH: QVQLQESGGGLVQAGGSLRLSCAASRRTSRNYDMTWFRQFPGTEREFVAFISWGGSRIYYADSVKGRFTISRDNAKDTVYLQMNSLKPEDTAVYYCAADPRLVRGRYESDYWGQGTQVTVSS | pEC50 | 7.89 |
| Nb B66 (His- and HA-tagged) (VHH, also called Nb66; source: E. coli WK6 (pMECS), periplasmic, purified (IMAC, SEC)) VHH: QVQLQESGGGLVQAGGSLRLSCAASGRTFSSYGIGWFRQAPGKEREFVASISWSGGSTYYADSVKGRFTISRDNAKNTVYLQMNSLKPEDTAVYYCAAVIEAIDFVPVEYDYWGQGTQVTVSS | pEC50 | 6.74 |
